Ref: PubChem BioAssay

Some compounds, each annotated with its measured z-score.
assay.text: P. aeruginosa biofilm formation inhibitors, primary screen, strain PAO1, LB-PBS medium, absorbance 600 nm (AID 1176); note: test concentration not given here
condition: P. aeruginosa PAO1 growth/biofilm, A600, 12 h; higher = more signal
Form field (numeric): enter value without unit.

O=C1[C@H]2[C@H]3[C@H](O)[C@H](O)CC(=NO[C@@H]4O[C@H](CO)[C@@H](O)[C@H](O)[C@H]4O)[C@@H]3CC[C@H]2C(=O)N1c1cccc(Oc2ccccc2)c1 : -0.343
COC(=O)CC=C[C@@H](C)[C@@H](C=NOC(C)CN1CCCCc2nc(C)c(C)cc21)OC (some centres undefined) : -0.0417
O=C1[C@H]2[C@H]3[C@H](O)[C@H](O)CC(=NOC[C@@H](O)COCc4ccco4)[C@@H]3CC[C@H]2C(=O)N1C1CCCCC1 : 0.0457

Switching to the query record.
q: Can you look up the measured z-score of CCN1C(=O)[C@H]2[C@H]3[C@H](O)[C@H](O)CC(=NO[C@H](C)c4cn([C@H](CO)Cc5ccccc5)nn4)[C@@H]3CC[C@H]2C1=O for me?
a: 0.359

----------
assay.text: E. coli DRC41 culture turbidity changes, primary screen, E. coli filamentation inducer project, strain DRC41, OD650, 48 h (AID 1152);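 note: E. coli MC1000 strain DRC41 lacking acrAB efflux pump and sulA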
condition: E. coli DRC41 (acrAB sulA), higher = more signal, called active from +8 up or from −8 down
The reader will find reported z-score values listed item by item below.
Lab note: jot down the number only; don't add units.

# annotated cases, reported z-score shown
CC(=O)OC[C@H]1O[C@@H](ON=C2[C@H]3CCn4c(=O)n(-c5ccccc5)c(=O)n4[C@H]3[C@H](O)[C@@H]3O[C@H]23)[C@H](OC(C)=O)[C@@H](OC(C)=O)[C@@H]1OC(C)=O : -0.132
C=CC[C@@H]1C=CC(ON=C(C)C)[C@@H](CO)O1 (some centres not stated) : -1.85
CCOC(=O)CCN1C(=O)[C@H]2[C@H]3[C@H](O)[C@H](O)CC(=NNC(=O)OCc4ccccc4)[C@H]3CC[C@H]2C1=O : -0.351
O=C1C[C@@H](O)[C@@H](O)[C@@H]2[C@@H]3C(=O)N(C4CCCCC4)C(=O)[C@@H]3CC[C@@H]12 : -0.348
CC(C)=NOC[C@@H](O)[C@H]1O[C@@H]2OC(C)(C)O[C@@H]2[C@H]1O : 0.269
CCOC(=O)[C@H](Cc1ccccc1)NC(=O)CCC1CC(OC(=O)NCCc2ccc(F)cc2)CC2(CCCC(COC(=O)NCCC(C)C)O2)O1 (some centres not stated) : -0.15
CC(CCC(=O)OC[C@H]1O[C@H](C#Cc2ccccc2)C=C[C@@H]1Oc1ccc(C)cc1)=NO[C@H](C)c1cn([C@@H]2COC[C@H]2O)nn1 : -0.6
CCOC(=O)[C@H](CC(C)C)NC(=O)CCC1CC(OC(=O)NCc2ccc3c(c2)OCO3)CC2(CCCC(COC(=O)NCCC(C)C)O2)O1 (some centres not stated) : -0.213
CCC1=NOC(CCC2CC(OC(=O)NCc3cccc4c3OCO4)CC3(CCCC(COC(=O)NCCc4ccc(Cl)cc4)O3)O2)C1 (configuration not stated) : 0.13
CCOC(=O)[C@H](Cc1ccccc1)NC(=O)CCC1CC(OC(=O)NCc2cccc3ccccc23)CC2(CCCC(COC(=O)NCC3CCCCC3)O2)O1 (some centres not stated) : 0.0278

q: Please report the recorded z-score for CCOC(=O)[C@H](CC(C)C)NC(=O)CCC1CC(OC(=O)NCCc2ccc(F)cc2)CC2(CCCC(COC(=O)NCCCN3CCCC3=O)O2)O1 (some centres not stated) .
a: -0.237

q: Can you look up the measured z-score of COc1ccc(COC(=O)NN=C2C[C@@H](O)[C@@H](O)[C@@H]3[C@@H]4C(=O)N([C@@H](C)c5ccccc5)C(=O)[C@@H]4CC[C@H]23)cc1 for me?
a: 0.486

q: Which measured z-score value corresponds to CON=C1c2cc(OC)ccc2O[C@H](c2cccc(OC)c2)[C@H]1O ?
a: 0.788

q: Fill in the blank: the reported z-score of CC(CCC(=O)OC[C@H]1O[C@H](C#Cc2ccccc2)C=C[C@@H]1Oc1ccc(C)cc1)=NO[C@@H](C)c1cc(-c2c(C)cc(C)cc2C)no1 is ____.
a: 0.357

q: # query: z-score of entry CCOC(=O)[C@H](Cc1ccccc1)NC(=O)CCC1CC(OC(=O)NCc2cccc3ccccc23)CC2(CCCC(COC(=O)NCc3ccc4c(c3)OCO4)O2)O1 (some centres not stated)
a: 1.21

q: Look up z-score for this compound: COc1ccc(COC(=O)NN=C2C[C@@H](O)[C@@H](O)[C@@H]3[C@@H]4C(=O)N([C@@H](C)c5ccccc5)C(=O)[C@@H]4CC[C@@H]23)cc1
a: 0.774

q: Sample CC(=O)OC[C@H]1O[C@H](CC=NOC(C)CN2CCCCc3nc(C)c(C)cc32)C=C[C@@H]1OC(C)=O (some centres not stated) — what was its z-score?
a: 0.0072

----------
The entries below come with measured composite z-score values attached.
assay.text: small-molecule binders of probe aNOTCH2, primary screen, biochemical, small-molecule microarray, 635/667 nm fluorescence (AID 1121);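 note: score merges feature fluorescence read at 667 nm with its signal to noise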
condition: higher = more signal
Hey, just send me the number, nothing else.

CO[C@@H](C1CCCCC1)[C@@H](C)[C@H](OCc1cccc(Br)c1)[C@@H](C)CO : -0.209

q: Reported composite z-score, molecule CON=C(C)CCC(=O)OC[C@H]1O[C@H](C#Cc2ccccc2)C=C[C@@H]1Oc1ccc(C)cc1 : ____
a: -0.0751

q: // composite z-score lookup, key: COc1ccc(COC(=O)NN=C2C[C@@H](O)[C@@H](O)[C@@H]3[C@@H]4C(=O)N(Cc5ccccc5)C(=O)[C@@H]4CC[C@@H]23)cc1
a: -0.182

q: So what does the record say about composite z-score for C#CCCCON=C1C[C@@H](O)[C@@H](O)[C@@H]2[C@@H]3C(=O)N(C4CCCCC4)C(=O)[C@@H]3CC[C@@H]12 ?
a: -0.129

----------
assay.text: anti-His antibody binders, primary screen, artefact control for SMM control protein annotation, biochemical, small-molecule microarray, 635 nm fluorescence (AID 1128);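 note: score merges feature fluorescence with signal-to-noise for each printed compound spot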
condition: anti-His Alexa647 antibody binding, higher = more signal
Attribute: composite z-score
I'd appreciate a reply containing only the number, no unit.

Here is how some molecules turned out for composite z-score.
C[C@H]1CC[C@H]2C(=O)OC(COc3ccc(C(C)(C)C)cc3)CN2[C@@H]1c1ccc(Br)cc1 (stereo partly drawn) : 0.148
CC(=O)OC[C@H]1O[C@H](CC=NO[C@@H](C)c2cc(-c3c(C)cc(C)cc3C)no2)C=C[C@@H]1OC(C)=O : 1.81

q: Entry under review: COC(OC)[C@@H](C)[C@H](OC)[C@@H](C)[C@H](OC)c1ccccc1 . Reported composite z-score?
a: -0.504

----------
System: Sonic hedgehog protein (Shh)
assay.text: small-molecule binders of Shh protein, primary screen, biochemical, small-molecule microarray, 635/667 nm fluorescence (AID 1151);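 note: Shh protein binding to compounds spotted on small-molecule microarray slides; score combines spot fluorescence intensity with signal-to-noise across triplicate slides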
condition: small-molecule microarray binding, 635 nm fluorescence; higher = more signal
assay.endpoint: composite z-score
No unit in the answer, please; the number alone is enough.

q: // map COCCNC(=O)OCC1CCCC2(CC(OC(=O)NCc3cccc4ccccc34)CC(CCC(=O)N[C@@H](C)C(=O)OC)O2)O1 (stereo not given in full) to recorded composite z-score (system: Sonic hedgehog protein (Shh))
a: 0.971

----------
assay.text: modulators of S6 phosphorylation in cells, primary screen, cell-based, A549, cytoblot, luminescence, serum-stimulated (AID 1158);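 note: serum-stimulated A549 lung adenocarcinoma cells; signal is phosphorylated S6 detected by cytoblot immunostaining with HRP secondary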
condition: A549 phospho-S6 cytoblot, 5 h, higher = more signal
z-score vs 0.2: at or above is true (1), below is false (0).

Answered examples (3):
CC(C)=CCCC(C)=CCON=C1C[C@@H](O)[C@@H](O)[C@@H]2[C@@H]3C(=O)N(C4CCCCC4)C(=O)[C@@H]3CC[C@H]12 : false (0)
CCCNC(=O)OC[C@H]1O[C@H](CCON=C[C@@H](NS(=O)(=O)c2ccc(C)cc2)[C@H](C)C=CCC(=O)OC)C=C[C@@H]1Oc1ccc(OC)cc1 : false (0)
CCN1C(=O)[C@H]2[C@H]3[C@H](O)[C@H](O)CC(=NOC[C@@H](O)COCc4ccco4)[C@H]3CC[C@H]2C1=O : false (0)

q: Does z-score meet or surpass 0.2 for COC(=O)[C@H](C)NC(=O)CCC1CC(OC(=O)NCc2ccc3c(c2)OCO3)CC2(CCCC(COC(=O)NCc3ccccc3)O2)O1 (stereo not given in full) ?
a: true (1)

q: Say whether C[C@H]1C=CCC(=O)OC[C@H](C)C(=O)N2CCC[C@H]2C(=O)OC1 shows z-score of 0.2 or more.
a: false (0)

q: Tell me whether z-score is at least 0.2 here: COc1ccc(-c2cnnc(CCCn3ccnc3-c3ccccc3)n2)cc1
a: false (0)

q: Textbook exercise: given the entry CCOC(=O)[C@H](Cc1ccccc1)NC(=O)CCC1CC(OC(=O)NCc2ccc3c(c2)OCO3)CC2(CCCC(COC(=O)NCCOC)O2)O1 (stereo not given in full) , state whether its z-score is greater than or equal to 0.2.
a: true (1)

q: Quick check: does COC(=O)[C@H](C)NC(=O)CCC1CC(OC(=O)NCCc2ccc(F)cc2)CC2(CCCC(COC(=O)NCC3CCCCC3)O2)O1 (stereo not given in full) have z-score greater than or equal to 0.2?
a: true (1)

q: Would you say Cc1ccc(C(C)C)n1C(=O)OC(C)(C)C shows z-score at minimum 0.2?
a: true (1)

q: Textbook exercise: given the entry O=C1CCCC=C1C(O)c1ccc([N+](=O)[O-])cc1 (stereo not given) , state whether its z-score is greater than or equal to 0.2.
a: true (1)

q: Textbook exercise: given the entry COC(=O)[C@H](C)NC(=O)CC=C[C@@H](C)[C@@H]1C=C[C@H](O)[C@@H](CO)O1 , state whether its z-score is greater than or equal to 0.2.
a: true (1)

q: Form field: z-score at least 0.2? Entry: CCCNC(=O)OC[C@H]1O[C@H](CCON=C2C[C@@H](O)[C@@H](O)[C@@H]3[C@@H]4C(=O)N(CC)C(=O)[C@@H]4CC[C@@H]23)C=C[C@@H]1Oc1ccc(OC)cc1
a: false (0)

q: Dear colleague, could you confirm whether CCOC(=O)CCN1C(=O)[C@H]2[C@H]3[C@H](O)[C@H](O)CC(=NOCC=C(C)CCC=C(C)C)[C@@H]3CC[C@H]2C1=O has z-score at or above 0.2?
a: true (1)

q: Dear colleague, could you confirm whether COC(=O)[C@H](C)NC(=O)CCC1CC(OC(=O)NCc2cccc3ccccc23)CC2(CCCC(COC(=O)NCc3ccccc3)O2)O1 (stereo not given in full) has z-score at or above 0.2?
a: true (1)

q: Hi, just wondering whether CC(CCN1CCCCc2nc(C)c(C)cc21)=NO[C@@H](C)c1cc(-c2c(C)cc(C)cc2C)no1 shows z-score of 0.2 or higher.
a: false (0)
